target_or_test_system: Cynomolgus monkey CD1a protein (Cynomolgus monkey)
test_method_notes: ELISA, Ab 1 µg/ml
quantity_name: Optical Density (OD)
One number for each entry, in OD.

Sample answers from the record:
>>> quantitative_result("110 (VR12112) (antibody, V domains shown, V regions were 'cloned as either rabbit or mouse full length antibodies'; also called OX110; antibody 110) VH: QSVEESGGRLVTPGTPLTLTCTVSGFSLSSYAMIWVRQAPGKGLEWIGIINSSDNTHYATWAKGRFTISKTSTTVDLKITSPTTEDTATYFCARDPYDYGYGWYFDLWGPGTLVTVSS VL: AQVLTQTPSPVSAAVGGTVTINCQASQSVFNNKNLAWYQQKPGQPPKLLIYKASTLASGVSSRFKGSGSGTQFALTISGVQCDDAATYYCQGEFSCSSTDCVTFGGGTEVVVK")
0.94
>>> quantitative_result("111 (VR12113) (antibody, V domains shown, also called OX111) VH: QSVEESGGRLVTPGTPLTLTCTASGFSLSTYAMSWVRQAPGKGLEWIGIISSSGSTYYASWAKGRFTISKTSTTVDLKITSPTTEDTATYFCARETWYWLDLWGQGTLVTVSS VL: AVEMTQTPASVSAAVGGTVTINCQASEDIYSNLAWYQQKPGQPPKLLIYGASTLASGVPSRFKGSGSGTEYTLTISGVQCDDAATYYCQCAYDSSSYGTPFGGGTEVVVK")
0.69
>>> quantitative_result("77A (VR11851) (antibody, V domains shown, V regions were 'cloned as either rabbit or mouse full length antibodies'; also called OX77a; antibody 77a) VH: QSVEESGGRLVTPGTPLTLTCTVSGFSLSSYAMSWVRQAPGKGLEWIGIISSSGTTYYASWAKGRFTISKTSTTVDLKITSPTTEDTATYFCARVDYYSSGWGGLWGPGTLVTVSS VL: AVEMTQTPASMSAAVGGTVTIKCQASEDIYSNLAWYQQKPGQPPKLLIYGASTLASGVPSRFKGSGSGTEYTLTISGVQCDDAATYYCQCTYDTSSYGNTFGGGTEMVVE")
0.43

Let's switch to this binder now.
// 116 (VR12117) (antibody, V domains shown, also called OX116) VH: QSVEESGGRLVTPGTPLTLTCTVSGFSLSNYAMSWVRQAPGKGLEWIGIIYTTGFTYYASWVKGRFTISKTSTTVDLKITSPTTEDTATYFCARGLATYVSPPTRLDLWGQGTLVTVSS VL: AQVLTQTPSPVSAAVGGTVTINCQASQSIYNSKNLAWYQQKPGQPPKLLIYSASTLASGVPSRFKGSGSGTQFTLTISDLECDDAATYYCQGEFSCSSVDCATFGGGTEVVVK : Optical Density (OD) value = 0.14

Values were extracted from patent US20250382372A1.
